- system: T1, Human CD3eg linker (human)
- T1 construct: Single-chain construct; also called recombinant human CD3
- T1 chain: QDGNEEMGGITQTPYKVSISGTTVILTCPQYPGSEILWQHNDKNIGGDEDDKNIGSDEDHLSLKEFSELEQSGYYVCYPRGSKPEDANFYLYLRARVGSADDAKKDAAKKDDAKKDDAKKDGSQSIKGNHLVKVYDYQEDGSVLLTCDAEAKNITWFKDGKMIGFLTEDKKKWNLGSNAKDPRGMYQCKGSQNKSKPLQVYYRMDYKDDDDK
- measurementNotes: SPR; fold vs parent H183/L072
parameterMeasured: fold change of affinity (fold)
# output: bare number, implied unit fold

What measured fold change of affinity goes with H183/L072 VL F96T (antibody, name in Kabat numbering, V domains shown) VH: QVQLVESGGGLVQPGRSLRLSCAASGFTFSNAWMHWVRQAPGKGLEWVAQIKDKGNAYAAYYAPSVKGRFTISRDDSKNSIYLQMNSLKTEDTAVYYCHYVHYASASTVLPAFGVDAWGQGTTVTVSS VL: DIVMTQSPLSLPVTPGEPASISCQASQELVHMNRNTYLHWYQQKPGQAPRLLIYKVSNRFPGVPDRFSGSGSGTDFTLKISRVEAEDVGVYYCAQGTSVPTTFGQGTKLEIK ?
0

Now try H183/L072 VL F55K (antibody, name in Kabat numbering, V domains shown) VH: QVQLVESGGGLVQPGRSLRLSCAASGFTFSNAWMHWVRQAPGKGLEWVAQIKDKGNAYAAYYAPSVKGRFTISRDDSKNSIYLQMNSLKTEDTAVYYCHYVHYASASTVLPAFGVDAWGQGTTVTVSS VL: DIVMTQSPLSLPVTPGEPASISCQASQELVHMNRNTYLHWYQQKPGQAPRLLIYKVSNRKPGVPDRFSGSGSGTDFTLKISRVEAEDVGVYYCAQGTSVPFTFGQGTKLEIK .
8.3

Now try H183/L072 VL A25G (antibody, name in Kabat numbering, V domains shown) VH: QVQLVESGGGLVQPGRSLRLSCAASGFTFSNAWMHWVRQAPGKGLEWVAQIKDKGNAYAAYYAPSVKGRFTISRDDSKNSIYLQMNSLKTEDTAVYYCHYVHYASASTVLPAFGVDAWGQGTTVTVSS VL: DIVMTQSPLSLPVTPGEPASISCQGSQELVHMNRNTYLHWYQQKPGQAPRLLIYKVSNRFPGVPDRFSGSGSGTDFTLKISRVEAEDVGVYYCAQGTSVPFTFGQGTKLEIK .
0.9

These data points were gathered from patent US20210388087A1.
